Each recorded value in this set is attributed to ChEMBL document CHEMBL2177055.

- Procedure text: physchem
- Run parameters: DMSO solution
# label = y if solubility thermodynamic at 24 h >= 40 µM else n

Please review the entries below; each comes with its answer.
Smiles: Nc1ncc(-c2ccc(S(=O)(=O)N3CCCCC3)cc2)nc1C(=O)Nc1cccnc1
Qualitative label: n
--
Smiles: Nc1ncc(-c2ccc(OCCN3CCCCC3)cc2)nc1C(=O)Nc1cccnc1
Qualitative label: y

stdin: Could you verify whether the entry CN(C)Cc1ccncc1NC(=O)c1nc(-c2ccc(S(=O)(=O)N3CCCC3)cc2)cnc1N shows solubility thermodynamic at 24 h of no less than 40 µM?
stdout: n

stdin: Could you verify whether the entry CN1CCN(S(=O)(=O)c2ccc(-c3cnc(N)c(C(=O)Nc4cccnc4)c3)cc2)CC1 shows solubility thermodynamic at 24 h of no less than 40 µM?
stdout: n

stdin: Could you verify whether the entry Nc1ncc(-c2ccc(S(=O)(=O)N3CCCC3)cc2)nc1C(=O)Nc1cccnc1 shows solubility thermodynamic at 24 h of no less than 40 µM?
stdout: n

stdin: Could you verify whether the entry Cc1cc(S(=O)(=O)N2CCN(C)CC2)c(C)cc1-c1cnc(N)c(C(=O)Nc2cccnc2)n1 shows solubility thermodynamic at 24 h of no less than 40 µM?
stdout: y

stdin: Could you verify whether the entry CN1CCN(S(=O)(=O)c2ccc(-c3ccc(N)c(C(=O)Nc4cccnc4)c3)cc2)CC1 shows solubility thermodynamic at 24 h of no less than 40 µM?
stdout: y

stdin: Could you verify whether the entry CCN(CCN(C)C)S(=O)(=O)c1ccc(-c2cnc(N)c(C(=O)Nc3cccnc3)n2)cc1 shows solubility thermodynamic at 24 h of no less than 40 µM?
stdout: y

stdin: Could you verify whether the entry COCCNC(=O)c1nc(-c2ccc(S(=O)(=O)N3CCN(C)CC3)cc2)cnc1N shows solubility thermodynamic at 24 h of no less than 40 µM?
stdout: y

stdin: Could you verify whether the entry Nc1ncc(-c2ccc(S(=O)(=O)N3CCOCC3)cc2)nc1C(=O)Nc1cccnc1 shows solubility thermodynamic at 24 h of no less than 40 µM?
stdout: y

stdin: Could you verify whether the entry CN1CCN(S(=O)(=O)c2ccc(-c3cnc(N)c(C(=O)Nc4ncns4)n3)cc2)CC1 shows solubility thermodynamic at 24 h of no less than 40 µM?
stdout: n
